Hey, just so you know, these numbers are from the RNAGym collection of RNA variant scans (doi:10.1073/pnas.2313332121).

Parameter polymerase ribozyme fitness (log ratio): see the listing below.
B1: TPR 5TU (parent)
chain: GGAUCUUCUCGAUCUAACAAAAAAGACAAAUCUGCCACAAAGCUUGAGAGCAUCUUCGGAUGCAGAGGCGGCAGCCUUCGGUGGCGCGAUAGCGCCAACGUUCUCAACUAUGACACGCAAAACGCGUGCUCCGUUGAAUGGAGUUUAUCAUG

# Variants of: B1
# Assay Summary: polymerase ribozyme fitness, log enrichment relative to wild type (log ratio); higher = more active; in vitro selection for triplet polymerase activity
Fewer inactive variants are shown than the library holds.
Reply with the value as a number alone.

These solved cases illustrate the format of a correct answer.
sequence_variant="U13A G94C" quantitative_readout=-1.19
sequence_variant="A16U C85A" quantitative_readout=-2.74
sequence_variant="C5A G48C" quantitative_readout=-0.334

Prompt: Record request: polymerase ribozyme fitness (log ratio) value, item A41U G83U A150U
Response: -1.02

Prompt: What value of polymerase ribozyme fitness (log ratio) has been recorded for this entry: A16G A19G G84U A122U
Response: -3.73
